// provenance: patent US20100292442A1

biological target: T1, huIL-17RA-FLAG-polyHis (human, UniProt Q96F46 33-320); experiment: Luminex binning; bead huIgG control (f15) + IL-17RA [D00007 Fig. 8B]
T1 construct: also called wild-type IL-17RA-FLAG-polyHis; HuIL-17RA-Flag-pHis
Each entry gets false (0) if its normalized MFI stays under 80, and true (1) if its normalized MFI is 80 or above.

Prompt line: Does the reported normalized MFI for AMH12/AML12 (antibody, V domains shown, Fully human mAb from IgG2 XenoMouse hybridomas; also called AM-12) VH: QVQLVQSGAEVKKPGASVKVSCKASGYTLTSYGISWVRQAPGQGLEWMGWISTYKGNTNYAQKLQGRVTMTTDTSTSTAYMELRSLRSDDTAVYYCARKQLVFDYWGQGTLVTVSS VL: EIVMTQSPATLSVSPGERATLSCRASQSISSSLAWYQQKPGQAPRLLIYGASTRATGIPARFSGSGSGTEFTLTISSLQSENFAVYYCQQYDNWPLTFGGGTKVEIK fall at or above the 80 mark?
Response line: false (0)
